This section presents compounds with their documented pIC50 values.
EXPERIMENTAL_SYSTEM: JAK1 (Homo sapiens (Human), UniProt P23458)
Sequence (P23458 875-1153): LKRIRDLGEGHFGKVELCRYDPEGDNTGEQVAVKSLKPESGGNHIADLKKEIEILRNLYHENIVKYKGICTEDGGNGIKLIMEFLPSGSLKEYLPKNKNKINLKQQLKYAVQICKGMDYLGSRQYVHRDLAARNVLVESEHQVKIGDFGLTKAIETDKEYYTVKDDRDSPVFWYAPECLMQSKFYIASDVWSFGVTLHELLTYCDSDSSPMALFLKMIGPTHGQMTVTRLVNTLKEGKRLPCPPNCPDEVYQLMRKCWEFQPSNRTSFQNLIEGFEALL
ASSAY_EXPLANATION: Purified kinase assay (Z'-LYTE), JAK1
Format: biochemical
DETAILS: Table 1; read-out: JAK1 IC50
pIC50: −log10 of the molar value.

The examples below pair each entry with its known result.
STRUCTURE_AS_SMILES | pIC50
NC(=O)c1nnc(Nc2cccc(OCCN3CCCC3)c2)cc1NCc1cccc(F)c1 | < 6.00
COc1cc(Nc2cc(NCc3cccc(F)c3)c(C(N)=O)nn2)ccc1C(=O)N1CCCC1 | < 6.00
NC(=O)c1nnc(Nc2cnn(C3CCCC3)c2)cc1NCc1cccc(F)c1F | < 6.00
Cn1cc(Nc2cc(NCc3cccc(F)c3)c(C(N)=O)nn2)cn1 | < 6.00
CC(=O)N1CCN(c2ccc(Nc3cc(NCc4cccnc4)c(C(N)=O)nn3)cc2)CC1 | < 6.00

Ask | Annotate the compound `CCC(=O)N1CCN(c2ccc(Nc3cc(NCc4cc(F)ccc4F)c(C(N)=O)nn3)cc2)CC1` with its measured pIC50.
Reply | < 6.00

Ask | Hello, please tell me recorded pIC50 for this one: `CN(c1ccc(Nc2cc(NCc3cccc(F)c3)c(C(N)=O)nn2)cc1)S(C)(=O)=O`
Reply | < 6.00

Ask | Report measured pIC50; entry is `CC(=O)N1CCN(c2ccc(Nc3cc(NCc4cccc(-c5ccncc5)c4)c(C(N)=O)nn3)cc2)CC1`
Reply | < 6.00

Ask | Answer with the recorded pIC50 for the compound listed here: `CC(=O)N1CCN(c2ccc(Nc3cc(NCc4cc(F)cc(F)c4)c(C(N)=O)nn3)cc2)CC1`
Reply | 6.00 to 7.00

Ask | Give a short answer stating reported pIC50 for `CS(=O)(=O)Cc1ccc(Nc2cc(NC3CCN(c4ccc(C#N)cn4)CC3)c(C(N)=O)nn2)cc1` .
Reply | 7.00 to 8.00

Values from patent US9834548B2
